// provenance: ChEMBL document CHEMBL1201862

test system: OVCAR-8; test: NCI tumour cell line growth inhibition, 48 h
The source made the active and inactive calls. No stated cut-off is given here; in the data, active = GI50 up to about 1.1 µM and inactive = higher.
Please respond with reported GI50 for every item in the list.

What reported GI50 corresponds to CC#CC#C/C=C1/O[C@]2(CCC(OC(C)=O)CO2)[C@@H]2O[C@H]12 (some centres undefined) on OVCAR-8?
32.8 µM (inactive)

What reported GI50 corresponds to O=C(/C=C1\C[C@H]2C=Nc3ccccc3C(=O)N2C1)NCCCCNC(=O)/C=C1\C[C@H]2C=Nc3ccccc3C(=O)N2C1 on OVCAR-8?
4.93 µM (inactive)

What reported GI50 corresponds to Cc1cn(C2CC(O)C(CO)O2)c(=O)n2nnnc12 (centres undefined) on OVCAR-8?
> 100 µM (inactive)

What reported GI50 corresponds to C[C@@H]1S[C@H](c2c(F)cccc2Cl)n2c1nc1ccccc12 on OVCAR-8?
19 µM (inactive)
